Assay: Tmax in BALB/c mouse infected with Mycobacterium tuberculosis H37Rv at 30 mg/kg, po administered for 4 weeks starting from day 28 post infection
Type: ADME, organism-based
Settings: in vivo
READOUT: Tmax

// Tmax lookup, key: COc1ncnc(Cn2cnc3c(C(=O)NCCF)cccc32)c1C 3 h

----------
Molecular target: Cytochrome P450 3A4 (Homo sapiens)
Sequence (P08684 whole entry): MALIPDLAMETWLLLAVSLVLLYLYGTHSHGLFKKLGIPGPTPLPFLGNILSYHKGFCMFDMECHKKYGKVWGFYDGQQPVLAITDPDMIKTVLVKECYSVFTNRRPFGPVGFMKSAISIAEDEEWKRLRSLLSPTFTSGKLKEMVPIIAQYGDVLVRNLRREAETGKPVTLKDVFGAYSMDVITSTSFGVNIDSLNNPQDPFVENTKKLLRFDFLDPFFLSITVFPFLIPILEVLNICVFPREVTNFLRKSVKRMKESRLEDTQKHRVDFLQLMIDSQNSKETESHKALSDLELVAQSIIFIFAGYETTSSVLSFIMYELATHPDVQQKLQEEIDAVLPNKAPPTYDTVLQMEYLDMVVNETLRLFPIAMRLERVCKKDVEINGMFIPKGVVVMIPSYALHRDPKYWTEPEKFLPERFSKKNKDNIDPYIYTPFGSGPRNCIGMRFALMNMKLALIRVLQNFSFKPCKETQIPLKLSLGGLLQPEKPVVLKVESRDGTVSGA
pIC50: −log10 of the molar value.
READOUT: pIC50

// pIC50 lookup, key: COc1ncnc(Cn2cnc3c(C(=O)NCCF)cccc32)c1C < 4.30

Here is another compound to look at.
// pIC50 lookup, key: COc1cc(C(=O)NCCF)c2ncn(Cc3ncnc(N(C)C)c3C)c2c1 < 4.30

----------
Assay: Half life in BALB/c mouse infected with Mycobacterium tuberculosis H37Rv at 30 mg/kg, po administered for 4 weeks starting from day 28 post infection
Assay type: ADME, organism-based
Conditions: in vivo
READOUT: half-life (h)
Quick reminder: number only, in h, skip the unit.

// half-life lookup, key: COc1ncnc(Cn2cnc3c(C(=O)NCCF)cccc32)c1C 5.9

----------
Experiment: Cmax in BALB/c mouse infected with Mycobacterium tuberculosis H37Rv at 10 mg/kg, po administered for 4 weeks starting from day 28 post infection
Type: ADME, organism-based
Design: dose 10 mg/kg, route oral
Details: in vivo
READOUT: Cmax (µM)
Quick reminder: number only, in µM, skip the unit.

// Cmax lookup, key: COc1ncnc(Cn2cnc3c(C(=O)NCCF)cccc32)c1C 5.1

----------
Test: Oral bioavailability in rat
Format: ADME, organism-based
Details: in vivo
READOUT: bioavailability

// bioavailability lookup, key: COc1ncnc(Cn2cnc3c(C(=O)NCCF)cccc32)c1C 114%

----------
Assay: Cmax in BALB/c mouse infected with Mycobacterium tuberculosis H37Rv at 30 mg/kg, po administered for 4 weeks starting from day 28 post infection
Format: ADME, organism-based
Design: dose 30 mg/kg, route oral
Details: in vivo
READOUT: Cmax (µM)
Quick reminder: number only, in µM, skip the unit.

// Cmax lookup, key: COc1ncnc(Cn2cnc3c(C(=O)NCCF)cccc32)c1C 18.3

----------
Recorded below: IC50, system Cytochrome P450 2C9 (Homo sapiens).

Notebook: pull reported IC50 for Cytochrome P450 2C9 (Homo sapiens), entry COc1cc(C(=O)NCCF)c2ncn(Cc3ncnc(N(C)C)c3C)c2c1 > 50 µM

Here is another molecule to look at.
Notebook: pull reported IC50 for Cytochrome P450 2C9 (Homo sapiens), entry COc1ncnc(Cn2cnc3c(C(=O)NCCF)cccc32)c1C > 50 µM

----------
Let's look at some molecules and their measured IC50.
Molecular target: Cytochrome P450 2C19 (Homo sapiens, UniProt P33261)
Sequence (P33261 whole entry): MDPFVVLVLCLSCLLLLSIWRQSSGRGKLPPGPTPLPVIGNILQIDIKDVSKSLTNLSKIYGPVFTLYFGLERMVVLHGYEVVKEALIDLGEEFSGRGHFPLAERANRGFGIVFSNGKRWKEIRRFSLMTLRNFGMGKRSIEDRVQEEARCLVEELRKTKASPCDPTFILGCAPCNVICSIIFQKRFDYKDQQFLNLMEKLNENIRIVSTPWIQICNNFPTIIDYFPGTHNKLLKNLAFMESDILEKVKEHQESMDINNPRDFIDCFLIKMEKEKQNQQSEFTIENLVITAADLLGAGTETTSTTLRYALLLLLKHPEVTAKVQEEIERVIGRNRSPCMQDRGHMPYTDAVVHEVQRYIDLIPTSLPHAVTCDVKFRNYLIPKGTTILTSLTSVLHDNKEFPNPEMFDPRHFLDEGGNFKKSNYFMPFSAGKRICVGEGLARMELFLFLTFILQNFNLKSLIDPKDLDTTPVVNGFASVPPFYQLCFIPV

Notebook: pull reported IC50 for Cytochrome P450 2C19 (Homo sapiens, UniProt P33261), entry COc1cc(C(=O)NCCF)c2ncn(Cc3ncnc(N(C)C)c3C)c2c1 > 50 µM

Here is another molecule to look at.
Notebook: pull reported IC50 for Cytochrome P450 2C19 (Homo sapiens, UniProt P33261), entry COc1ncnc(Cn2cnc3c(C(=O)NCCF)cccc32)c1C > 50 µM

----------
Let's look at some compounds and their measured pIC50.
Target: Voltage-gated inwardly rectifying potassium channel KCNH2 (Homo sapiens, UniProt Q12809)
Sequence (Q12809 whole entry): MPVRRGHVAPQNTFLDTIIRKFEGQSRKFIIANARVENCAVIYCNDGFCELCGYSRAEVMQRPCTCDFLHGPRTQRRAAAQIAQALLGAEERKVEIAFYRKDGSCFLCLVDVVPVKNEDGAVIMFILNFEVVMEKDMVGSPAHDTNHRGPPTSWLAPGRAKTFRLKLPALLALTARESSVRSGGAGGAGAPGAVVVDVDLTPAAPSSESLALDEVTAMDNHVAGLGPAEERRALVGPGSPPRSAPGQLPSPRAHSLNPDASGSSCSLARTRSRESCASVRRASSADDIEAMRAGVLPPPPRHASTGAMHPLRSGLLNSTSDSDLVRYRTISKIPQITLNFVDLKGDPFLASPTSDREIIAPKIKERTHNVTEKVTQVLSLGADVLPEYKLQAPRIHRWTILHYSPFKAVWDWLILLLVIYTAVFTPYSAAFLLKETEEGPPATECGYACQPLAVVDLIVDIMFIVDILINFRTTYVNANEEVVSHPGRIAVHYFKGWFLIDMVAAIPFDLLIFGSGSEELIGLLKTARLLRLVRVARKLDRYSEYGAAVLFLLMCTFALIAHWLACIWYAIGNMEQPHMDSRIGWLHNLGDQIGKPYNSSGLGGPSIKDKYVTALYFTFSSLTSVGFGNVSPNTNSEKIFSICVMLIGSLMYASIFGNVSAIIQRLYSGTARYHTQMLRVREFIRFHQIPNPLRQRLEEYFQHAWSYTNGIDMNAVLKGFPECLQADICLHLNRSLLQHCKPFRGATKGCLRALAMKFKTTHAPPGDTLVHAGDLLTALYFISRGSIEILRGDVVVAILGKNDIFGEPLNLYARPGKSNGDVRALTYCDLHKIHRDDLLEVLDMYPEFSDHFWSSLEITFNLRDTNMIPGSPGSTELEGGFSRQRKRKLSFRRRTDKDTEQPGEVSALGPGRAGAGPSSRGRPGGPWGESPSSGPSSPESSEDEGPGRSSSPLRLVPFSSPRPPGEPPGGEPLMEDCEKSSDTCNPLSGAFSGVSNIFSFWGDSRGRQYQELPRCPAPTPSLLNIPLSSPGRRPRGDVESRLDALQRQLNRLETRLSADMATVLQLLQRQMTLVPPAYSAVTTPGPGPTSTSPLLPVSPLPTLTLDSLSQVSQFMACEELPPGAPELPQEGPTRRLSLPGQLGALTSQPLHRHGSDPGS
Assay: Inhibition of human ERG
pIC50: −log10 of the molar value.

Notebook: pull reported pIC50 for Voltage-gated inwardly rectifying potassium channel KCNH2 (Homo sapiens, UniProt Q12809), entry COc1ncnc(Cn2cnc3c(C(=O)NCCF)cccc32)c1C < 4.48

Here is another compound to look at.
Notebook: pull reported pIC50 for Voltage-gated inwardly rectifying potassium channel KCNH2 (Homo sapiens, UniProt Q12809), entry COc1cc(C(=O)NCCF)c2ncn(Cc3ncnc(N(C)C)c3C)c2c1 < 4.48

----------
Assay: AUC (0 to infinity) in BALB/c mouse infected with Mycobacterium tuberculosis H37Rv at 30 mg/kg, po administered for 4 weeks starting from day 28 post infection
Type: ADME, organism-based
Parameters: dose 30 mg/kg, route oral, time infinity
Settings: in vivo
READOUT: AUC(0-inf) (µM·h)
Quick reminder: number only, in µM·h, skip the unit.

// AUC(0-inf) lookup, key: COc1ncnc(Cn2cnc3c(C(=O)NCCF)cccc32)c1C 78.6

----------
Test: AUC (0 to infinity) in BALB/c mouse infected with Mycobacterium tuberculosis H37Rv at 10 mg/kg, po administered for 4 weeks starting from day 28 post infection
Type: ADME, organism-based
Design: dose 10 mg/kg, time infinity, route oral
Settings: in vivo
READOUT: AUC(0-inf) (µM·h)
Quick reminder: number only, in µM·h, skip the unit.

// AUC(0-inf) lookup, key: COc1ncnc(Cn2cnc3c(C(=O)NCCF)cccc32)c1C 13.5

----------
Assay: Permeability across apical to basolateral side in human Caco2 cells
Type: ADME, cell-based
Settings: Caco-2, read-out: permeability
Let's look at some molecules and their measured Papp A→B.
Answer with the value and then the unit.

// Papp A→B lookup, key: COc1ncnc(Cn2cnc3c(C(=O)NCCF)cccc32)c1C 37 ×10⁻⁶ cm/s

Here is another molecule to look at.
// Papp A→B lookup, key: COc1cc(C(=O)NCCF)c2ncn(Cc3ncnc(N(C)C)c3C)c2c1 26 ×10⁻⁶ cm/s

----------
Let's look at some compounds and their measured clearance.
Test: Clearance in rat
Assay type: ADME
Details: in vivo
Quick reminder: number only, in mL/min/kg, skip the unit.

// clearance lookup, key: COc1ncnc(Cn2cnc3c(C(=O)NCCF)cccc32)c1C 48

Here is another compound to look at.
// clearance lookup, key: COc1ncnc(Cn2cc(C(=O)NCCO)c3ncc(C)cc32)c1C 27
